- Target: HIV Env of isolate T255-34 (clade AG) (HIV)
- Protocol details: cell-based or functional assay
Exercise: state measured IC50 (µg/ml) with constrains for each of the binders provided.
One number for each entry, in µg/mL.

Example cases with answers are listed next.
IC50 (µg/ml) with constrains reported for this binder PGDM1400 (antibody, V domains shown) VH: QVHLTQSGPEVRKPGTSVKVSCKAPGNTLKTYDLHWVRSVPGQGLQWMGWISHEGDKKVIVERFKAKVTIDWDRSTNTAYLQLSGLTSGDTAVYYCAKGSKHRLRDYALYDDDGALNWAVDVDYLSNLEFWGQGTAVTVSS VL: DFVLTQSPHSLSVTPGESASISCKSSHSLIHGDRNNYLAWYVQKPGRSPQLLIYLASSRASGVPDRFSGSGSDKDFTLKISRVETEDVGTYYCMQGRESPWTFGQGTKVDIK : 0.046

IC50 (µg/ml) with constrains reported for this binder ePGDM13 (antibody, V domains shown) VH: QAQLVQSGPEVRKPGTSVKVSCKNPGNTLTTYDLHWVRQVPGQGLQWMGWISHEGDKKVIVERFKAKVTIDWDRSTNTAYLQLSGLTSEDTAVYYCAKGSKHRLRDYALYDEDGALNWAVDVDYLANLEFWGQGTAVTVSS VL: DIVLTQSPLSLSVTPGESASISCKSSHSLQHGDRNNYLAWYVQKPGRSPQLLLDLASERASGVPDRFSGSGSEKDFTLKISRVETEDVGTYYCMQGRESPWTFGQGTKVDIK : 0.007

IC50 (µg/ml) with constrains reported for this binder ePGDM5 (antibody, V domains shown) VH: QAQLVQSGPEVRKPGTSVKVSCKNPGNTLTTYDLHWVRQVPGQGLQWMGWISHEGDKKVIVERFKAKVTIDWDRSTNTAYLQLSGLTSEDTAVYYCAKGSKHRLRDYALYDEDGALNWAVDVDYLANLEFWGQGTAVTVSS VL: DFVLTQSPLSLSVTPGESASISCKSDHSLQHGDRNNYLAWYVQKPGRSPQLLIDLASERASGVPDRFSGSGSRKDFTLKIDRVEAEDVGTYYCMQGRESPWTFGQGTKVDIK : 0.018

Consider the record given below.
IC50 (µg/ml) with constrains reported for this binder ePGDM9 (antibody, V domains shown) VH: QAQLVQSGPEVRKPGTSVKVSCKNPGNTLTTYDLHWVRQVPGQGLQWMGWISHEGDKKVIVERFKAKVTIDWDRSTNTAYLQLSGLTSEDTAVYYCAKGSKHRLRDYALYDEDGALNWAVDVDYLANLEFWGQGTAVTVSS VL: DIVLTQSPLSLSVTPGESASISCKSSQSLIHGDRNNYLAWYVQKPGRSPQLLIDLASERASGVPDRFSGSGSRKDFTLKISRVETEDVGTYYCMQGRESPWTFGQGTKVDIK : 0.002
